Molecular target: human somatostatin receptor 2 (SST2) (Homo sapiens, UniProt P30874)
Sequence (P30874 whole entry): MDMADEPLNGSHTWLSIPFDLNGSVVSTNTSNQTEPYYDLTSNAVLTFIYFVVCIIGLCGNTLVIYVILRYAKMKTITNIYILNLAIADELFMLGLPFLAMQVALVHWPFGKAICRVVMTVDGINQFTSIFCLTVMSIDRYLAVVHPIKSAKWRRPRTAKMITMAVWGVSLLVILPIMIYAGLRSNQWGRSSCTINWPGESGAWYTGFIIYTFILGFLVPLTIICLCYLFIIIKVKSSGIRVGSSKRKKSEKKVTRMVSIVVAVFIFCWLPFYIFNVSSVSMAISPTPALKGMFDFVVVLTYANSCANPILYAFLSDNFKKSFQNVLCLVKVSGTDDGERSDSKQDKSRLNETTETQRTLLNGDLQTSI
Conditions: read-out: EC50, inhibition of cAMP accumulation via SST2 activation; average, in vitro

SAMPLE SMILES	ASSAYED TARGET	EC50 / nM
N#Cc1cccc(-c2ccc3ncc(-c4cc(F)cc(F)c4)c(N4CCC(N)CC4)c3c2)c1O	human somatostatin receptor 2 (SST2) (Homo sapiens, UniProt P30874)	0.25

###

Experiment: Phase 1 hepatic impairment study, plasma PK after single oral 20 mg tablet
Assay type: in vivo, human
Details: both sexes, human, plasma, oral, 20 mg, mild hepatic impairment; read-out: tmax, Median (min, max)

SAMPLE SMILES	Tmax
N#Cc1cccc(-c2ccc3ncc(-c4cc(F)cc(F)c4)c(N4CCC(N)CC4)c3c2)c1O	1.63 h

###

Assay: Phase 1 hepatic impairment study, plasma PK after single oral 20 mg tablet
Assay type: in vivo, human
Conditions: both sexes, human, plasma, oral, 20 mg, mild hepatic impairment; read-out: AUC(0-t), Mean ± SD
EXPERIMENTAL READOUT: AUC(0-t) (ng·h/mL)

SAMPLE SMILES	RECORDED VALUE
N#Cc1cccc(-c2ccc3ncc(-c4cc(F)cc(F)c4)c(N4CCC(N)CC4)c3c2)c1O	1820

###

Experiment: Phase 1 hepatic impairment study, plasma PK after single oral 20 mg tablet
Format: in vivo, human
Conditions: both sexes, human, plasma, oral, 20 mg, mild hepatic impairment; read-out: Cmax, Mean ± SD
EXPERIMENTAL READOUT: Cmax

COMPOUND	RECORDED VALUE
N#Cc1cccc(-c2ccc3ncc(-c4cc(F)cc(F)c4)c(N4CCC(N)CC4)c3c2)c1O [paltusotine]	133 ng/mL

###

Assay: Phase 1 hepatic impairment study, plasma PK after single oral 20 mg tablet
Format: in vivo, human
Conditions: both sexes, human, plasma, oral, 20 mg, normal hepatic function; read-out: AUC(0-inf), Mean ± SD
Method: Overall, 36 male and female subjects were enrolled, including 14 subjects with normal hepatic function, 8 subjects with mild stable hepatic impairment (Group 1), 8 subjects with moderate stable hepatic impairment (Group 2), and 6 subjects with severe stable hepatic impairment (Group 3). […] Pharmacokinetic samples were analyzed using a validated liquid chromatography coupled with tandem mass spectrometry assay for paltusotine in human plasma. […]

MOLECULE	AUC(0-inf) / ng·h/mL
N#Cc1cccc(-c2ccc3ncc(-c4cc(F)cc(F)c4)c(N4CCC(N)CC4)c3c2)c1O [paltusotine]	1840

###

Experiment: Phase 1 hepatic impairment study, plasma PK after single oral 20 mg tablet
Assay type: in vivo, human
Conditions: both sexes, human, plasma, oral, 20 mg, normal hepatic function; read-out: Cmax, Mean ± SD

SAMPLE SMILES	Cmax (ng/mL)
N#Cc1cccc(-c2ccc3ncc(-c4cc(F)cc(F)c4)c(N4CCC(N)CC4)c3c2)c1O	101
